Please go through the items and note down their growth inhibition.
method-notes: NCI Yeast Anticancer Drug Screen. Data for the cln2 rad14 strain (AID 165);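 also: 0% = growth equal to vehicle treated cultures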
reported-conditions: S. cerevisiae cln2 rad14 strain, at 50.0 µM (retest, dose inferred, filed as 5.0), stronger effect = higher value
About 79,000 compounds went through this panel and 15% of them were active in at least one assay; those are over-represented in the sample as a whole.
Report as a plain number; the unit % is understood.

q: Determine its reported growth inhibition: Cc1cccc(NC(=O)c2cc3cc(N=Nc4ccccc4Cl)ccc3oc2=O)c1
a: 3

q: Tell me measured growth inhibition for O=[N+]([O-])c1ccc2c(c1)/C(=C/c1ccc(O)cc1)c1ccccc1-2 please.
a: 84

q: Provide measured growth inhibition value, entry: COc1ccc2nc3cc(Cl)ccc3c(NCCCCCCNc3c4ccc(Cl)cc4nc4ccc(OC)nc34)c2n1
a: 80

q: Please supply the value of reported growth inhibition for the item O=C(CCCN1CCC2(CC1)CC(c1ccccc1)OC2=O)c1ccc(F)cc1 (stereo unspecified)
a: 84

q: Report measured growth inhibition; entry is Clc1ccc(CN2CCN(Cc3ccc(Cl)cc3)C2c2ccc(Cl)cc2)cc1
a: 55

q: Consider the compound CCCCCCCSCC1C(=O)C23CC1CCC2C12COC(O)C1C(C)(C)C(O)CC2OC3=O (stereo unspecified) . State its measured growth inhibition.
a: 99

q: // Input: Cc1ccc(NN)cc1 . Output its growth inhibition only.
a: 75

q: Note down growth inhibition recorded for CN(C)N=Nc1c(-c2cccs2)n[nH]c1C(F)(F)F
a: 99

q: Query growth inhibition for CN(/N=C/C(O)C(O)C(O)CO)c1ccccc1 (stereo unspecified)
a: 98

q: Specify measured growth inhibition for Cc1cc(C2c3ccccc3-c3ccccc32)cc(C)c1O .
a: -9

q: Find the measured growth inhibition of C[C@]12CC[C@H]3[C@@H](CCC4=CC(=O)CC[C@@]43C)[C@@H]1CC[C@@H]2O[Si](O[C@H]1CC[C@H]2[C@@H]3CCC4=CC(=O)CC[C@]4(C)[C@H]3CC[C@]12C)(O[C@H]1CC[C@H]2[C@@H]3CCC4=CC(=O)CC[C@]4(C)[C@H]3CC[C@]12C)c1ccccc1 and report it.
a: 33

q: For the compound O=NNc1ncccc1OCc1ccccc1 , give its measured growth inhibition value.
a: 9

q: Given CC(=O)OCC(C(N)=O)(c1ccccc1)c1ccccc1 , respond with its growth inhibition.
a: -3

q: Give the reported growth inhibition for this compound. C1=C(C2=C[P+](c3ccccc3)(c3ccccc3)C=C(c3ccccc3)O2)OC(c2ccccc2)=C[P+]1(c1ccccc1)c1ccccc1
a: 2

q: Give growth inhibition for the following compound: CCCCCCCCCCCCCCCC[n+]1ccc(/C=C/c2ccccc2)cc1
a: 94

q: Return reported growth inhibition. Input compound: COC(=O)/C=C(\C)Nc1ccc(Cc2ccc(Cl)cc2)cc1
a: 99

q: # return recorded growth inhibition for input Cc1cccc2nc3nc(Cl)c(Cl)nc3n12
a: 54

q: Check the records and state growth inhibition for O=C1C=C(c2ccccc2)OC1(Nc1ccccc1)c1ccccc1 (stereo unspecified)
a: 53

q: Could you please provide reported growth inhibition for CCc1cccc(CC)c1NC(=O)C(C#N)C1=C(Cl)C(=O)c2ccccc2C1=O (stereo unspecified) ? Thanks!
a: 99

q: # return recorded growth inhibition for entry Clc1ccc(C2=NCON=C2c2ccc(Cl)cc2)cc1
a: 98

q: Return the recorded growth inhibition value; entry: N=C(N)SCc1ccc(Br)cc1
a: -4
